Data provenance: patent EP2518159A1

# maps each entry to its Ratio, gene expression change Emilin2
# Tested on: Emilin2
# EXPERIMENT: Gene expression change of Emilin2 in neural differentiation culture of embryonic stem cells (Affymetrix microarray)
# REPORTED CONDITIONS: ES-D3 neural differentiation culture, exposed from day 3, harvested on day 4 (24h exposure); relative to DMSO control (1 = unchanged); 25 nM MeHg, 100 µM cyproconazole, 1000 µM valproic acid, 25 µM hexaconazole
Answer using only a numeral; do not append any unit.

CCCCC(O)(Cn1cncn1)c1ccc(Cl)cc1Cl (stereo not shown) ... 1.185
CCCC(CCC)C(=O)[O-].[Na+] [VPA, Valproic acid sodium salt] ... 2.063
[CH3][Hg][Cl] [MeHg, Methylmercury chloride] ... 1.351

Here is the next item to consider.
Request: Answer with the recorded Ratio, gene expression change Emilin2 of CC(C1CC1)C(O)(Cn1cncn1)c1ccc(Cl)cc1 (stereo not shown) only.
Response: 1.270

* * *

# System: Car4
# EXPERIMENT: Gene expression change of Car4 in neural differentiation culture of embryonic stem cells (Affymetrix microarray)
# REPORTED CONDITIONS: ES-D3 neural differentiation culture, exposed from day 3, harvested on day 4 (24h exposure); relative to DMSO control (1 = unchanged); 25 nM MeHg, 100 µM cyproconazole, 1000 µM valproic acid, 25 µM hexaconazole
MEASUREMENT NAME: Ratio, gene expression change Car4
Answer using only a numeral; do not append any unit.

CC(C1CC1)C(O)(Cn1cncn1)c1ccc(Cl)cc1 (stereo not shown) ... 0.777
CCCCC(O)(Cn1cncn1)c1ccc(Cl)cc1Cl (stereo not shown) ... 0.936
[CH3][Hg][Cl] [MeHg, Methylmercury chloride] ... 0.686

Here is the next item to consider.
Request: Answer with the recorded Ratio, gene expression change Car4 of CCCC(CCC)C(=O)[O-].[Na+] [VPA, Valproic acid sodium salt] only.
Response: 1.373

* * *

# maps each entry to its Ratio, gene expression change Shisa6
# Tested on: Shisa6
# EXPERIMENT: Gene expression change of Shisa6 in neural differentiation culture of embryonic stem cells (Affymetrix microarray)
# REPORTED CONDITIONS: ES-D3 neural differentiation culture, exposed from day 3, harvested on day 4 (24h exposure); relative to DMSO control (1 = unchanged); 25 nM MeHg, 100 µM cyproconazole, 1000 µM valproic acid, 25 µM hexaconazole
Answer using only a numeral; do not append any unit.

Some entries whose results are on file:
CCCC(CCC)C(=O)[O-].[Na+] [VPA, Valproic acid sodium salt] ... 0.752
CC(C1CC1)C(O)(Cn1cncn1)c1ccc(Cl)cc1 (stereo not shown) ... 1.228
[CH3][Hg][Cl] [MeHg, Methylmercury chloride] ... 1.380

Here is the next item to consider.
Request: State the measured Ratio, gene expression change Shisa6 (Shisa6) of CCCCC(O)(Cn1cncn1)c1ccc(Cl)cc1Cl (stereo not shown)
Response: 1.096
